# Test Method Notes: qHTS assay to identify small molecule antagonists of the androgen receptor (AR) signaling pathway using the MDA cell line in the presence of 0.5 nM R1881 - cell viability counter screen (AID 1259242); note: nearly all actives have a fitted effect of over 45% in size
# Stated Conditions: MDA-kb2 viability, CellTiter-Fluor protease fluorescence, 16 h; series mostly up to 92.4 µM
# Source text: U.S. Tox21 Program National Center for Advancing Translational Sciences [NCATS] NIH Chemical Genomics Center [NCGC] U.S. Environmental Protection Agency [EPA] National Institutes of Environmental Health Sciences [NIEHS] National Toxicology Program [NTP] U.S. Food and Drug Administration [FDA] Tox21 Assay Overview: Androgen receptor (AR) is an important member of the nuclear receptor family. Its signaling plays a critical role in AR-dependent prostate cancer and other androgen related diseases. […]
Results filed as inconclusive are left out. Activity calls are given as the source filed them. Calls come from the whole dose curve; as a rule, active = well fitted cell-killing curve with a large enough effect in the repeat runs; inconclusive = weak or mixed curves, or effect the other way; inactive = flat fitted curve, though single readings scatter.
# valid calls are active, inactive; nothing else

In this assay, the call recorded for CCCSP(=S)(OCC)Oc1ccc(SC)cc1 (stereo not given) was what?
inactive

In this assay, the call recorded for CC(C)(C)NCC(O)c1ccccc1Cl (stereo not given) was what?
inactive

In this assay, the call recorded for CCCCCl was what?
inactive

In this assay, the call recorded for CCOP(=S)(OCC)SCSc1cc(Cl)ccc1Cl was what?
inactive

In this assay, the call recorded for N#CC1(N=NC2(C#N)CCCCC2)CCCCC1 was what?
inactive

In this assay, the call recorded for COc1cc(CC(C)N)c(OC)cc1Br (stereo not given) was what?
inactive

In this assay, the call recorded for CC(C)c1ccc(NC(=O)N(C)C)cc1 was what?
inactive

In this assay, the call recorded for CC(C)(C)c1ccc(CCOc2ncnc3ccccc23)cc1 was what?
inactive

In this assay, the call recorded for CCCCCCCCCCCCCCCl was what?
inactive

In this assay, the call recorded for OCC1CO1 (stereo not given) was what?
inactive

In this assay, the call recorded for O=C1NC(=O)C(=O)C(=O)N1 was what?
inactive

In this assay, the call recorded for CCC[N+](CCC)(CCC)CCC was what?
inactive

In this assay, the call recorded for Clc1ccc(Cl)c(Cl)c1 was what?
inactive

In this assay, the call recorded for N#CC(C#N)=C(C#N)C#N was what?
inactive

In this assay, the call recorded for CCN(C(C)=O)c1cccc(-c2ccnc3c(C#N)cnn23)c1 was what?
inactive

In this assay, the call recorded for c1ccc2c(c1)sc1ccccc12 was what?
inactive

In this assay, the call recorded for COP(=O)(OC)OC(Br)C(Cl)(Cl)Br (stereo not given) was what?
inactive

In this assay, the call recorded for O=C(Cl)OCCOCCOC(=O)Cl was what?
inactive

In this assay, the call recorded for CC(O)CN1CCN(CC(=O)[O-])CCN(CC(=O)[O-])CCN(CC(=O)[O-])CC1.[Gd+3] (stereo not given) was what?
inactive

In this assay, the call recorded for O=[N+]([O-])O[C@H]1CO[C@H]2[C@@H]1OC[C@H]2O[N+](=O)[O-] was what?
inactive

In this assay, the call recorded for C[Si](Cn1cncn1)(c1ccc(F)cc1)c1ccc(F)cc1 was what?
inactive

In this assay, the call recorded for C[N+]1(CCF)[C@@H]2CC[C@H]1CC(OC(=O)C(O)(c1ccccc1)c1ccccc1)C2 (stereo not given in full) was what?
inactive

In this assay, the call recorded for C=CCN1C[C@H](C)N([C@H](c2ccc(C(=O)N(CC)CC)cc2)c2cccc(OC)c2)C[C@H]1C was what?
inactive

In this assay, the call recorded for CC(CC(C(N)=O)(c1ccccc1)c1ccccc1)N(C)C (stereo not given) was what?
inactive

In this assay, the call recorded for O=C([O-])c1ccccn1.O=C([O-])c1ccccn1.O=C([O-])c1ccccn1.[Cr+3] was what?
inactive

In this assay, the call recorded for CCC1(CC)C(=O)NC(=O)NC1=O was what?
inactive

In this assay, the call recorded for CC(C)(C)OOC(C)(C)CCC(C)(C)OOC(C)(C)C was what?
inactive

In this assay, the call recorded for C[C@H]1[C@@H]2Cc3ccc(O)cc3[C@@]1(C)CCN2C was what?
inactive

In this assay, the call recorded for [Cl-].[Cl-].[Hg+2] was what?
active

In this assay, the call recorded for Nc1ccc2c(c1)Cc1ccccc1-2 was what?
inactive

In this assay, the call recorded for Cc1cccc(C)c1NC1=NCCCS1 was what?
inactive

In this assay, the call recorded for OCCCl was what?
inactive

In this assay, the call recorded for O=C(O)c1cc(I)cc(I)c1I was what?
inactive

In this assay, the call recorded for COCc1cnc(C2=NC(C)(C(C)C)C(=O)N2)c(C(=O)O)c1 (stereo not given) was what?
inactive

In this assay, the call recorded for CN1CC[C@]23c4c5ccc(O)c4O[C@H]2[C@@H](O)CC[C@H]3[C@H]1C5 was what?
inactive
